These data points were gathered from PubChem BioAssay.

- Procedure details: A549 cell viability effects, profiling panel, calcein-AM fluorescence, 48 h, basal (AID 1162); further: test concentration not given here
- Cond: higher = more signal
Quick reference: z-score of the listed items.
Value type: z-score

INSERT INTO measurements (molecular_string, reported_measurement) VALUES
  ('O=C1O[C@H](c2ccccc2)[C@H](c2ccccc2)N2[C@H]1[C@@H](C(=O)N1CCCCCCC1)[C@]1(C(=O)Nc3ccc(C#CCCO)cc31)[C@H]2c1ccccc1OCCO', 0.405),
  ('O=C1c2ccccc2[C@](Cc2ccccc2I)(C(=O)NCC(F)(F)F)[C@H](c2ccc(CO)cc2)N1Cc1ccccc1Cl', 0.0986),
  ('COCCOC(=O)N1C(=O)[C@@]2(c3ccccc31)[C@H](c1ccccc1OCCO)N1[C@H](c3ccccc3)[C@H](c3ccccc3)OC(=O)[C@H]1[C@@H]2C(=O)N1CCN(c2ncccn2)CC1', -0.588);

----------
- Procedure details: mitochondrial membrane potential change in A549 cells, profiling panel, cell-based, JC-1 fluorescence, basal, 24 h, 100 nL (AID 1138);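 further: A549 lung adenocarcinoma cells under basal conditions with no added stimulus; test concentration not given here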
- Cond: higher = more signal
Quick reference for z-score among some compounds
Value type: z-score

INSERT INTO assay_data (molecular_string, value_type, reported_measurement) VALUES
  ('C=CCNC(=O)[C@@H]1[C@H]2C(=O)O[C@H](c3ccccc3)[C@H](c3ccccc3)N2[C@H](c2ccc(O)cc2)[C@@]12C(=O)Nc1ccc(C#CCNC(N)=O)cc12', 'z-score', -1.27),
  ('CN(C)CCCCCCNC(=O)[C@@H]1C[C@@H]2C(=O)N[C@@H](Cc3ccccc3)C(=O)N2[C@@H]1c1ccc(O)cc1', 'z-score', -1.06),
  ('C=C(C(=O)CC[C@@H](OC(=O)c1cccnc1)c1ccccc1OCCO)C(C)C', 'z-score', -0.102),
  ('C=CC[C@@]1(C(=O)NCCN2CCOCC2)N=C(c2ccc(OCCCO)cc2)O[C@@H]1c1ccccc1N=[N+]=[N-]', 'z-score', 0.404),
  ('COC(=O)[C@@]1(Cc2ccc(OC)cc2)[C@H]2c3cc(C(=O)N(C)C)n(Cc4ccccn4)c3C[C@H]2CN1C(=O)c1ccccc1', 'z-score', 0.332),
  ('Cc1ccc(S[C@]2(C(=O)NCCCN(C)C)CC(=O)N(Cc3ccccc3C(F)(F)F)[C@@H]2c2ccc(CO)cc2)cc1', 'z-score', 0.566),
  ('C[N+](C)(C)CCCCCCNC(=O)[C@@H]1C[C@@H]2C(=O)N[C@@H](Cc3ccccc3)C(=O)N2[C@@H]1c1cccc(OCCO)c1', 'z-score', 0.435);

----------
- Procedure details: binders of probe aFGF10 on microarray, primary screen, stem cell growth factor project, biochemical, small-molecule microarray, fluorescence 635/667 (AID 1071);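 further: score merges 667 nm spot intensity and signal to noise from triplicate slides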
- Cond: higher = more signal
composite z-score values by entry
Value type: composite z-score

INSERT INTO measurements (compound, reported_measurement) VALUES
  ('C[N+](C)(C)CCCCCCNC(=O)[C@@H]1C[C@@H]2C(=O)N[C@@H](Cc3ccccc3)C(=O)N2[C@@H]1c1cccc(OCCO)c1', 0.44),
  ('O=C(c1ccccc1)N1Cc2ccccc2C[C@@]2(COC(c3ccc(OCCCO)cc3)=N2)C1=O', 0.591),
  ('COCCOC(=O)N1C(=O)[C@@]2(c3ccccc31)[C@H](c1ccc(O)cc1)N1[C@H](c3ccccc3)[C@H](c3ccccc3)OC(=O)[C@H]1[C@@H]2C(=O)Nc1nc2ccccc2s1', 0.175),
  ('CCCC[C@@H]1C[C@H]1[C@@H](NC(=O)c1ccco1)c1ccc(-c2ccccc2)cc1', 0.203),
  ('COc1cc2c(cc1OC)CN(C(=O)[C@@H]1[C@H]3C(=O)O[C@H](c4ccccc4)[C@H](c4ccccc4)N3[C@H](c3ccccc3OCCO)[C@@]13C(=O)Nc1ccc(C#CCCO)cc13)CC2', 0.671),
  ('COCCOC(=O)N1C(=O)[C@@]2(c3cc(C#Cc4ccc(OC)cc4)ccc31)[C@H](c1ccc(OCCO)cc1)N1[C@H](c3ccccc3)[C@H](c3ccccc3)OC(=O)[C@H]1[C@@H]2C(=O)N1CCN(c2ncccn2)CC1', 0.397),
  ('[N-]=[N+]=NCc1ccccc1C[C@]1(C(=O)N2CCCCC2)N=C(c2ccc(OCCCO)cc2)O[C@H]1c1ccccc1N=[N+]=[N-]', 0.816),
  ('C=CCC(OC(C)=O)[C@@H]1[C@@H](N(Cc2ccc(-c3ccccc3)cc2)C(=O)Cc2ccc(OC)cc2)c2cc(OCCCO)ccc2N1C(=O)Cc1ccc2ccccc2c1 (stereo partly drawn)', 0.0163),
  ('C=CCN1C(=O)[C@@]2(CC=C)N=C(c3ccc(OCCCO)cc3)O[C@H]2c2ccccc21', -0.0534),
  ('CC1CC/C=C\[C@H]2OC34C=CCN(C(C)(C)C)C(=O)[C@H]3N(CCO)C(=O)[C@@H]4C2C(=O)O1 (stereo partly drawn)', -0.749),
  ('COc1ccc(C(=O)Nc2ccc(CN3C(=O)[C@]4(O[C@H](CCO)[C@@H]([Si](C)(C)c5ccc(OC)cc5)[C@@H]4C)c4ccccc43)cc2)cc1', 0.245),
  ('COc1ccc(C#Cc2ccc3c(c2)[C@]2(C(=O)N3)[C@H](C(=O)NC[C@H](O)c3ccccc3)[C@H]3C(=O)O[C@H](c4ccccc4)[C@H](c4ccccc4)N3[C@@H]2c2ccc(O)cc2)cc1', 0.857),
  ('CC(C)c1ccc(NN2C(C(O)c3ccc(B(O)O)cc3)C=CC3C(=O)N(c4ccccc4)C(=O)C32)cc1 (stereo not drawn)', 1.13);
